Tested on: iCell cardiomyocytes
Assay: CellTiter-Glo protection from 400 μM H2O2
Type: cell-based
Conditions: Homo sapiens, Cardiomyocyte, read-out: EC50 in iCell cardiomyocytes (protecting hiPSC-CMs)
assay.endpoint: EC50 (nM)
# value in nM; strip the unit string

compound	system.tested	EC50 / nM
COCCOc1ccc(-c2cn(-c3ccccc3)c3nc[nH]c(=O)c23)cc1 [DMX-5804]	iCell cardiomyocytes	500

Query: Looking for the measured EC50 of Oc1ncnc2c1c(-c1ccccc1)cn2-c1ccccc1 [F1386-0303] , can you help?
Reply: 5000

---

Target: RIPK2 (Homo sapiens)
Construct: lines 1-140) and Reaction Biology
Sequence (O43353 whole entry): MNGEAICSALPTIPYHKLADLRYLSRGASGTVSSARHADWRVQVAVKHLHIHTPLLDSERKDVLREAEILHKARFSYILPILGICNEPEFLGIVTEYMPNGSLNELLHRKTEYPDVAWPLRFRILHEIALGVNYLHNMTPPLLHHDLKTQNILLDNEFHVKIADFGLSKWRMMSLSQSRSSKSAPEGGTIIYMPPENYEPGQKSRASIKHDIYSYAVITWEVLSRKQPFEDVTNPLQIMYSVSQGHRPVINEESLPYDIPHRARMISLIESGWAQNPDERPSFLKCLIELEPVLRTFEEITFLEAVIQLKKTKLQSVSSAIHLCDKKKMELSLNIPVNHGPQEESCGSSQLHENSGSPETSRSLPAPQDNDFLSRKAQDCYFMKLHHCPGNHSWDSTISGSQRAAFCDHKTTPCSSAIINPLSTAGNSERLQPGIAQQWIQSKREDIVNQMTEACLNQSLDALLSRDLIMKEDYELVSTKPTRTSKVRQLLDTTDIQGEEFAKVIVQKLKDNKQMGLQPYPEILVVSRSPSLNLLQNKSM
Assay: Dundee kinase panel
Format: biochemical
Settings: read-out: residual activity
Overview of recorded remaining activity at 1 µM for various compounds
# value in %; strip the unit string

Record excerpt, results attached:
compound	remaining activity at 1 µM, %
Oc1ncnc2c1c(-c1ccccc1)cn2-c1ccccc1 [F1386-0303]	105
COCCOc1ccc(-c2cn(-c3ccccc3)c3nc[nH]c(=O)c23)cc1 [DMX-5804]	89
O=C1Cc2c([nH]c3ccc(Br)cc23)-c2ccccc2N1 [Kenpaullone]	60

Query: Give remaining activity at 1 µM (RIPK2 (Homo sapiens)) of the following compound: O=C1Nc2ccc(I)cc2/C1=C/c1cc(Br)c(O)c(Br)c1 [GW5074]
Reply: 51

---

Molecular target: EPH-B4 (Homo sapiens)
Construct: lines 1-140) and Reaction Biology
Sequence (P54760 16-987): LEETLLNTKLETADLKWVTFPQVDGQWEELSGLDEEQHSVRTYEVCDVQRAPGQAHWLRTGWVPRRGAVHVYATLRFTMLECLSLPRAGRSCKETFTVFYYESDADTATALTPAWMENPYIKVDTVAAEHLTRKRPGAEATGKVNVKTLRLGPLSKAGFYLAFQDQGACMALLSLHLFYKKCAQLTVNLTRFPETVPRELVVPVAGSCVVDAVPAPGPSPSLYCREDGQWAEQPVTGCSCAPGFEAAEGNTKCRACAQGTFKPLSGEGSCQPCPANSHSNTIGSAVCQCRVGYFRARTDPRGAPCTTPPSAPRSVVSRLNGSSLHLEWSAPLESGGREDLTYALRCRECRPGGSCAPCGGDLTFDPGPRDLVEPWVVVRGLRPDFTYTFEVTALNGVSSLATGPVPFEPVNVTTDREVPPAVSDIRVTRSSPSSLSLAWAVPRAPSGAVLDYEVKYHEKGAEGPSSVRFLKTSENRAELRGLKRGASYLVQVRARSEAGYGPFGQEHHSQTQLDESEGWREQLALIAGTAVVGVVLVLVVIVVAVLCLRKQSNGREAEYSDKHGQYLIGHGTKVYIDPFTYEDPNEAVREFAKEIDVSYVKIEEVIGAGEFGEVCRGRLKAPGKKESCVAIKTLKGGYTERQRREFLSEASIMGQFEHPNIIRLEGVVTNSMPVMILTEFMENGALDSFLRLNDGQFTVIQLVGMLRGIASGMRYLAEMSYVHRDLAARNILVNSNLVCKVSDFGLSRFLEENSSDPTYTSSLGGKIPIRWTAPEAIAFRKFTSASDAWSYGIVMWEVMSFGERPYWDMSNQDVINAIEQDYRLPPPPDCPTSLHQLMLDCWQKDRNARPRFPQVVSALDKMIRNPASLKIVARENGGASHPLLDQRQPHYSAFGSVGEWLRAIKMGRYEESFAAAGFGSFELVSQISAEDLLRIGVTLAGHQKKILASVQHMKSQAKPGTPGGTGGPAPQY
Assay: Dundee kinase panel
Type: biochemical
Conditions: read-out: residual activity
Overview of recorded remaining activity at 1 µM for various compounds

chemical.string	readout.value
O=C1Cc2c([nH]c3ccc(Br)cc23)-c2ccccc2N1	85%
COCCOc1ccc(-c2cn(-c3ccccc3)c3nc[nH]c(=O)c23)cc1	100%
O=C1Nc2ccc(I)cc2/C1=C/c1cc(Br)c(O)c(Br)c1	94%

From here, focus on the item given below.
Query: Looking for the measured remaining activity at 1 µM of Oc1ncnc2c1c(-c1ccccc1)cn2-c1ccccc1 , can you help?
Reply: 102%

---

Target: TSSK1 (Homo sapiens)
Construct: lines 1-140) and Reaction Biology
Sequence (Q9BXA7 whole entry): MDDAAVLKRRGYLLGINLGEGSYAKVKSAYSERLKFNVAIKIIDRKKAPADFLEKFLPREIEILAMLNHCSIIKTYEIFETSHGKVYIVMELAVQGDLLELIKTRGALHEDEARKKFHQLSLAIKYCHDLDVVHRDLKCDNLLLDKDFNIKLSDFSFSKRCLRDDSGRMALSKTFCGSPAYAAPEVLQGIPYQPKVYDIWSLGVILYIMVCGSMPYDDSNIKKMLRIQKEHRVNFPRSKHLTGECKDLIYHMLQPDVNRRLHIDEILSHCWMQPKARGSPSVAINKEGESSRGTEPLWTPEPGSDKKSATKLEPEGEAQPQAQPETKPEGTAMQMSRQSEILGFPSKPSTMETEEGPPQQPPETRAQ
Assay: Dundee kinase panel
Type: biochemical
Details: read-out: residual activity
Method: Compounds were screened at 1 μM. For key hits, pIC50 values were then determined by HTRF as above. […] Stability in mouse and human liver microsomes was determined by Cyprotex.
assay.endpoint: remaining activity at 1 µM
Kindly write the number and append the unit.

chemical.string	remaining activity at 1 µM
COCCOc1ccc(-c2cn(-c3ccccc3)c3nc[nH]c(=O)c23)cc1	103%
Oc1ncnc2c1c(-c1ccccc1)cn2-c1ccccc1	109%

Query: Looking for the measured remaining activity at 1 µM of O=C1Nc2ccc(I)cc2/C1=C/c1cc(Br)c(O)c(Br)c1 , can you help?
Reply: 73%

Query: Looking for the measured remaining activity at 1 µM of O=C1Cc2c([nH]c3ccc(Br)cc23)-c2ccccc2N1 , can you help?
Reply: 46%

---

Molecular target: YES1 (Homo sapiens, UniProt P07947)
Construct: lines 1-140) and Reaction Biology
Sequence (P07947 whole entry): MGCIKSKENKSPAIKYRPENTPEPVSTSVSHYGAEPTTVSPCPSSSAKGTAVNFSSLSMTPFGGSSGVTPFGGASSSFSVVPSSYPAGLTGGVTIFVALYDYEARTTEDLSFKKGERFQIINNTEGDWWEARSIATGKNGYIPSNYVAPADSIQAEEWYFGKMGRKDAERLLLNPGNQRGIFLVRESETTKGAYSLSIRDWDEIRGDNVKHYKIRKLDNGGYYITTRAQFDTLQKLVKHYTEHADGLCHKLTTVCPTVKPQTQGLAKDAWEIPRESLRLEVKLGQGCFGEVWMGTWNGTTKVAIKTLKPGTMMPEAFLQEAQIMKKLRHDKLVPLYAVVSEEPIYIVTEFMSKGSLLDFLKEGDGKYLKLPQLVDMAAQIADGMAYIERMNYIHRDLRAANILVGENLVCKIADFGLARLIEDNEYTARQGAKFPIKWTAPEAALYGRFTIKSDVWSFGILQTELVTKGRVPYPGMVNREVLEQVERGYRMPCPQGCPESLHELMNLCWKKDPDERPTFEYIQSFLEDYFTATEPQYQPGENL
Assay: Dundee kinase panel
Format: biochemical
Conditions: read-out: residual activity
Overview of recorded remaining activity at 1 µM for various compounds
# value in %; strip the unit string

Record excerpt, results attached:
chemical.string	readout.value
O=C1Cc2c([nH]c3ccc(Br)cc23)-c2ccccc2N1	100
COCCOc1ccc(-c2cn(-c3ccccc3)c3nc[nH]c(=O)c23)cc1	96
Oc1ncnc2c1c(-c1ccccc1)cn2-c1ccccc1	85

From here, focus on the item given below.
Query: Looking for the measured remaining activity at 1 µM of O=C1Nc2ccc(I)cc2/C1=C/c1cc(Br)c(O)c(Br)c1 , can you help?
Reply: 93

---

Molecular target: EPH-A2 (Homo sapiens)
Construct: lines 1-140) and Reaction Biology
Experiment: Dundee kinase panel
Assay type: biochemical
Settings: read-out: residual activity
Overview of recorded remaining activity at 1 µM for various compounds
# value in %; strip the unit string

chemical.string	remaining activity at 1 µM / %
Oc1ncnc2c1c(-c1ccccc1)cn2-c1ccccc1	97

Query: Looking for the measured remaining activity at 1 µM of O=C1Nc2ccc(I)cc2/C1=C/c1cc(Br)c(O)c(Br)c1 , can you help?
Reply: 63

Query: Looking for the measured remaining activity at 1 µM of O=C1Cc2c([nH]c3ccc(Br)cc23)-c2ccccc2N1 , can you help?
Reply: 103

Query: Looking for the measured remaining activity at 1 µM of COCCOc1ccc(-c2cn(-c3ccccc3)c3nc[nH]c(=O)c23)cc1 , can you help?
Reply: 94

---

Target: HIPK3 (Homo sapiens, UniProt Q9H422)
Construct: lines 1-140) and Reaction Biology
Sequence (Q9H422 whole entry): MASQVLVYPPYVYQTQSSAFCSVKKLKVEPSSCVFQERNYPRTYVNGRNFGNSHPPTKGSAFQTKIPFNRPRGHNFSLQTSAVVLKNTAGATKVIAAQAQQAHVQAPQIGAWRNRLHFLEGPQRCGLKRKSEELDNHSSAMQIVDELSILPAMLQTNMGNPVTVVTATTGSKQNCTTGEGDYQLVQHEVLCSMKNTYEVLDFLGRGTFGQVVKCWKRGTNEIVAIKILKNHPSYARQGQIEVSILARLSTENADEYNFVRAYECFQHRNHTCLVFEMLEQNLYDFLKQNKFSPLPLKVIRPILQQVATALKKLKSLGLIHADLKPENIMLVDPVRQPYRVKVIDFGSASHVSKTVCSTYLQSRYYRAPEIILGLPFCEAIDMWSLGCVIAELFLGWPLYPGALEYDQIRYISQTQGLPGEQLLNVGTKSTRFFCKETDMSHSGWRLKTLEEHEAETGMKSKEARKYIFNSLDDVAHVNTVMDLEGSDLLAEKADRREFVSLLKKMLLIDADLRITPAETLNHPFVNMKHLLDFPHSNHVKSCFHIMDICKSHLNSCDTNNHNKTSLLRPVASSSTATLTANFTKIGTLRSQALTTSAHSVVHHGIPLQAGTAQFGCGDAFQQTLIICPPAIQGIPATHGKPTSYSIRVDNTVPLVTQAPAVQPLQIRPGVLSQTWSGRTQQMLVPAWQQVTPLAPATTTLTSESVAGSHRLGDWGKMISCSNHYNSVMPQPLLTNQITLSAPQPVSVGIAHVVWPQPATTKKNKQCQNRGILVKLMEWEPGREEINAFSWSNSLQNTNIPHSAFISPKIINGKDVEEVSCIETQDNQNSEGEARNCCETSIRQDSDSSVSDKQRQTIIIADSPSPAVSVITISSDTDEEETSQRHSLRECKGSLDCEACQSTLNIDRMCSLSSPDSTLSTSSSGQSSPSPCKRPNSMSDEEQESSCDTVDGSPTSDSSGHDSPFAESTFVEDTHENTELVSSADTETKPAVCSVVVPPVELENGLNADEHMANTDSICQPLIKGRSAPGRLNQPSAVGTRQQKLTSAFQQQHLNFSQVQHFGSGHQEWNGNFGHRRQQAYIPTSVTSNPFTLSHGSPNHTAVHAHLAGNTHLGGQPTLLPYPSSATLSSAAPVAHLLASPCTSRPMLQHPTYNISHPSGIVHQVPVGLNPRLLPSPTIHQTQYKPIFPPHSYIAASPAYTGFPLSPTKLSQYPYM
Assay: Dundee kinase panel
Format: biochemical
Conditions: read-out: residual activity
assay.endpoint: remaining activity at 1 µM (%)
# value in %; strip the unit string

Record excerpt, results attached:
molecule	remaining activity at 1 µM (%)
O=C1Cc2c([nH]c3ccc(Br)cc23)-c2ccccc2N1 [Kenpaullone]	87
Oc1ncnc2c1c(-c1ccccc1)cn2-c1ccccc1 [F1386-0303]	93
COCCOc1ccc(-c2cn(-c3ccccc3)c3nc[nH]c(=O)c23)cc1 [DMX-5804]	103

From here, focus on the item given below.
Query: Looking for the measured remaining activity at 1 µM of O=C1Nc2ccc(I)cc2/C1=C/c1cc(Br)c(O)c(Br)c1 [GW5074] , can you help?
Reply: 25

---

Biological target: MST3 (Homo sapiens)
Construct: lines 1-140) and Reaction Biology
Assay: Dundee kinase panel
Assay type: biochemical
Settings: read-out: residual activity
assay.endpoint: remaining activity at 1 µM (%)
# value in %; strip the unit string

Query: Give remaining activity at 1 µM (MST3 (Homo sapiens)) of the following molecule: O=C1Nc2ccc(I)cc2/C1=C/c1cc(Br)c(O)c(Br)c1
Reply: 29

Query: Give remaining activity at 1 µM (MST3 (Homo sapiens)) of the following molecule: Oc1ncnc2c1c(-c1ccccc1)cn2-c1ccccc1
Reply: 120

Query: Give remaining activity at 1 µM (MST3 (Homo sapiens)) of the following molecule: COCCOc1ccc(-c2cn(-c3ccccc3)c3nc[nH]c(=O)c23)cc1
Reply: 95

Query: Give remaining activity at 1 µM (MST3 (Homo sapiens)) of the following molecule: O=C1Cc2c([nH]c3ccc(Br)cc23)-c2ccccc2N1
Reply: 67

---

Overview of recorded remaining activity at 1 µM for various molecules
Target: CK1δ (Homo sapiens)
Construct: lines 1-140) and Reaction Biology
Sequence (P48730 whole entry): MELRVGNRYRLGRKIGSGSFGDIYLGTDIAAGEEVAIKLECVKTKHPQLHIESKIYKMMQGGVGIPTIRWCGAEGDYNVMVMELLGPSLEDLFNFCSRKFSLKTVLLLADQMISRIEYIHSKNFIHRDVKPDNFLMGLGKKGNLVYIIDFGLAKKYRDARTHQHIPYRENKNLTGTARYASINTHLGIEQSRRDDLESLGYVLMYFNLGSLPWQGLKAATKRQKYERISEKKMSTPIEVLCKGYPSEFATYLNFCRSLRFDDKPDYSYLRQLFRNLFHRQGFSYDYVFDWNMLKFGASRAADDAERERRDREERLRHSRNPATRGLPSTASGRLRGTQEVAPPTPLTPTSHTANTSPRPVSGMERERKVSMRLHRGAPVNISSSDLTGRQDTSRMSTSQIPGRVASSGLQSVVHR
Assay: Dundee kinase panel
Assay type: biochemical
Conditions: read-out: residual activity
# value in %; strip the unit string

chemical.string	remaining activity at 1 µM, %
Oc1ncnc2c1c(-c1ccccc1)cn2-c1ccccc1	107
COCCOc1ccc(-c2cn(-c3ccccc3)c3nc[nH]c(=O)c23)cc1	94
O=C1Nc2ccc(I)cc2/C1=C/c1cc(Br)c(O)c(Br)c1	88

From here, focus on the item given below.
Query: Looking for the measured remaining activity at 1 µM of O=C1Cc2c([nH]c3ccc(Br)cc23)-c2ccccc2N1 , can you help?
Reply: 104

---

Overview of recorded remaining activity at 1 µM for various molecules
Molecular target: PKBa (Homo sapiens)
Construct: lines 1-140) and Reaction Biology
Sequence (P31749 whole entry): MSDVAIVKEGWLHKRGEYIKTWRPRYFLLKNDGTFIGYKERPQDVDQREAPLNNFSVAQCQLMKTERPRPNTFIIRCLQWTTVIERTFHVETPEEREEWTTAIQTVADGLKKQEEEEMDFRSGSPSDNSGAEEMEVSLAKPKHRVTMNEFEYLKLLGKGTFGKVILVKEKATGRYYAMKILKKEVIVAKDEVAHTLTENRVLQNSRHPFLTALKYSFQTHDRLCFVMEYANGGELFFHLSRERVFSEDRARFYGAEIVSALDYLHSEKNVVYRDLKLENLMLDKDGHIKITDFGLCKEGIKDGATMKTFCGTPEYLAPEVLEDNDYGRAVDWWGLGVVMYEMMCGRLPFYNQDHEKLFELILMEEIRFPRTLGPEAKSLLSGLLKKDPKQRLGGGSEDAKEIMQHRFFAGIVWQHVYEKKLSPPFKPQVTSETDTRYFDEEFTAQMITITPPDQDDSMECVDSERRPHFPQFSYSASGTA
Test: Dundee kinase panel
Type: biochemical
Conditions: read-out: residual activity
Protocol: Compounds were screened at 1 μM. For key hits, pIC50 values were then determined by HTRF as above. […] Stability in mouse and human liver microsomes was determined by Cyprotex.
# value in %; strip the unit string

chemical.string	unit.descriptor	remaining activity at 1 µM
Oc1ncnc2c1c(-c1ccccc1)cn2-c1ccccc1	%	117
O=C1Cc2c([nH]c3ccc(Br)cc23)-c2ccccc2N1	%	95
COCCOc1ccc(-c2cn(-c3ccccc3)c3nc[nH]c(=O)c23)cc1	%	116

Query: Looking for the measured remaining activity at 1 µM of O=C1Nc2ccc(I)cc2/C1=C/c1cc(Br)c(O)c(Br)c1 , can you help?
Reply: 93

---

Molecular target: CAMK1 (Homo sapiens)
Construct: lines 1-140) and Reaction Biology
Sequence (Q14012 whole entry): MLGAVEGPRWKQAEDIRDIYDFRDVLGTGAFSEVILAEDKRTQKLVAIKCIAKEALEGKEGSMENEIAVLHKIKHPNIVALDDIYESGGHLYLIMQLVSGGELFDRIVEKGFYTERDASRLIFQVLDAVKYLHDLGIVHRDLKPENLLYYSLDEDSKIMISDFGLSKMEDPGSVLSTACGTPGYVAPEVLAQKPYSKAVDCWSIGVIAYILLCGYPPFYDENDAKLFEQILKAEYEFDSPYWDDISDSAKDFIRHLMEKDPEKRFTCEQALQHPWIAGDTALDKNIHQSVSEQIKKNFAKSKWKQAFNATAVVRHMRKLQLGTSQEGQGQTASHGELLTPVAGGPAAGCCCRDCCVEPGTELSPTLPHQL
Assay: Dundee kinase panel
Type: biochemical
Conditions: read-out: residual activity
Overview of recorded remaining activity at 1 µM for various compounds
# value in %; strip the unit string

compound	system.tested	remaining activity at 1 µM, %
Oc1ncnc2c1c(-c1ccccc1)cn2-c1ccccc1 [F1386-0303]	CAMK1 (Homo sapiens)	97
COCCOc1ccc(-c2cn(-c3ccccc3)c3nc[nH]c(=O)c23)cc1 [DMX-5804]	CAMK1 (Homo sapiens)	114
O=C1Nc2ccc(I)cc2/C1=C/c1cc(Br)c(O)c(Br)c1 [GW5074]	CAMK1 (Homo sapiens)	70

Query: Looking for the measured remaining activity at 1 µM of O=C1Cc2c([nH]c3ccc(Br)cc23)-c2ccccc2N1 [Kenpaullone] , can you help?
Reply: 103

---

Molecular target: HIPK1 (Homo sapiens)
Construct: lines 1-140) and Reaction Biology
Assay: Dundee kinase panel
Format: biochemical
Settings: read-out: residual activity
Overview of recorded remaining activity at 1 µM for various compounds
# value in %; strip the unit string

chemical.string	unit.descriptor	remaining activity at 1 µM
O=C1Nc2ccc(I)cc2/C1=C/c1cc(Br)c(O)c(Br)c1	%	84
Oc1ncnc2c1c(-c1ccccc1)cn2-c1ccccc1	%	54
COCCOc1ccc(-c2cn(-c3ccccc3)c3nc[nH]c(=O)c23)cc1	%	109

From here, focus on the item given below.
Query: Give remaining activity at 1 µM (HIPK1 (Homo sapiens)) of the following compound: O=C1Cc2c([nH]c3ccc(Br)cc23)-c2ccccc2N1
Reply: 102
